biological target: UniProtKB P16234
Sequence (P16234 whole entry): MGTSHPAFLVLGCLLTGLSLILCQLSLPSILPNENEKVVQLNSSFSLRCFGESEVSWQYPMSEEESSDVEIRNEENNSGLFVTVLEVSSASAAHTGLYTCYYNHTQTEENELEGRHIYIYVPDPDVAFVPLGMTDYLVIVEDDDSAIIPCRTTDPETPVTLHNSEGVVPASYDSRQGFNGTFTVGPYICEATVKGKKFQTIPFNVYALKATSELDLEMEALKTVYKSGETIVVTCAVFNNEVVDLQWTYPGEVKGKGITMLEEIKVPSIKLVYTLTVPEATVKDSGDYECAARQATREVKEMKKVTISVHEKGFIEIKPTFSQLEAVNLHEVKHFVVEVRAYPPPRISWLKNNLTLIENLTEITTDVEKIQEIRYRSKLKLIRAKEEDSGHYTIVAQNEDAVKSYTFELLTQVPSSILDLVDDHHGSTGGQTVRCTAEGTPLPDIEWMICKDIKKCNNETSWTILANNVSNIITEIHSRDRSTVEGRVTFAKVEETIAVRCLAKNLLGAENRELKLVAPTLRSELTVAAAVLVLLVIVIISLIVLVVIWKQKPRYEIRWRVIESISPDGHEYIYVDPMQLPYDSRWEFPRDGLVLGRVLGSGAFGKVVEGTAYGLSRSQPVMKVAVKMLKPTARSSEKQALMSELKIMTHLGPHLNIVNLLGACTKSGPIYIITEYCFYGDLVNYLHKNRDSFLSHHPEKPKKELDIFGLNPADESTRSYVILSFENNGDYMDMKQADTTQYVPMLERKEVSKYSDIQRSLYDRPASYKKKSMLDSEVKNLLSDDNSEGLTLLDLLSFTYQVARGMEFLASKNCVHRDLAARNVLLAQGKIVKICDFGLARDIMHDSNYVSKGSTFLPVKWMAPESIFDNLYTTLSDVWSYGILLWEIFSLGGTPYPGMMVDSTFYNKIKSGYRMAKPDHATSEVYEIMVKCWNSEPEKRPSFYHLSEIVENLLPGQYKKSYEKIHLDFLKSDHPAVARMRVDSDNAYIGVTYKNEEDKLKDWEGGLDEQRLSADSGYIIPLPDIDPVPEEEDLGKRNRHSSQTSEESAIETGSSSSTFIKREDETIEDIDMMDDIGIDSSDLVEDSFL
assay endpoint: IC50

Query: IC50 for Cc1cc(F)c(C(=O)Nc2cn[nH]c2)cc1NC(=O)c1cnc(N)s1 ?
Reply: > 1 µM

Source of measurements: BindingDB's records for patent US20250145606
